system: OVCAR3 ovarian cancer cell line; experiment: Cytotoxic activity of dimers, ATP luminescence or MTS cell proliferation assay; type: cell-based; conditions: OVCAR3 ovarian cancer cells, 72 h
value.type: EC50 (pM)
Your answer is read as pM, so omit the unit and give the number.

If you can, please state the reported EC50 value of `COc1cc2c(cc1OCCCOc1cc3c(cc1OC)C(=O)N1Cc4ccccc4C[C@H]1CN3)N=C[C@@H]1Cc3ccccc3CN1C2=O` .
180

----------
test system: OVCAR3 ovarian cancer cell line; experiment: Cytotoxic activity of dimers, ATP luminescence or MTS cell proliferation assay; assay type: cell-based; details: Homo sapiens, OVCAR-3, OVCAR3 ovarian cancer cells, 72 h
Please respond with reported EC50 for every item in the list.
Your answer is read as pM, so omit the unit and give the number.

If you can, please state the reported EC50 value of `COc1cc2c(cc1OCCCCCOc1cc3c(cc1OC)C(=O)N1Cc4cc(N)ccc4C[C@H]1C=N3)N=C[C@@H]1Cc3ccccc3CN1C2=O` .
20

Record: `COc1cc2c(cc1OCCCOc1cc3c(cc1OC)C(=O)N1Cc4ccccc4C[C@H]1C=N3)N=C[C@@H]1Cc3ccccc3CN1C2=O`
150

Record: `COc1ccc2c(c1)CN1C(=O)c3cc(OC)c(OCCCOc4cc5c(cc4OC)C(=O)N4C=C(c6ccc(N)cc6)C[C@H]4C=N5)cc3N=C[C@@H]1C2`
330

Record: `COc1cc2c(cc1OCCCOc1cc3c(cc1OC)C(=O)N1Cc4ccccc4C[C@H]1CN3)NC[C@@H]1Cc3ccccc3CN1C2=O`
2600

Record: `COc1cc2c(cc1OCc1cc(N)cc(COc3cc4c(cc3OC)C(=O)N3Cc5ccccc5C[C@H]3C=N4)c1)N=C[C@@H]1Cc3ccccc3CN1C2=O`
90

Record: `COc1cc2c(cc1OCCCCCOc1cc3c(cc1OC)C(=O)N1Cc4ccccc4C[C@H]1C=N3)N=C[C@@H]1CCCN1C2=O`
220
